Data credit: ChEMBL document CHEMBL5665443

inhibition overview
- system: Endonuclease III-like protein 1 (Homo sapiens);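 also: enzyme assay tracking NTHL1 cutting and release of a quenched double-stranded DNA oligo substrate, read as fluorescence at 594 nm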
- assayContext: Compound Concentration 10.0 uM, Hit No
- Description: Inhibition of NTHL1 by quantifying inhibition of NTHL1-mediated cleavage and dissociation of quenched duplex DNA oligonucleotides, measured as fluorescence at 594 nm.
reportedEndpoint: inhibition (%)

compound="O=C1CSC(=O)N1C(CCc1ccncc1)COc1ccc(-c2cccc([N+](=O)[O-])c2)cc1 (stereo not drawn)" system="Endonuclease III-like protein 1 (Homo sapiens)" reportedendpoint=inhibition resultunit=% val=17.1
compound=Cc1ccc(-c2cnc([C@@]3(O)CC[C@H](C(=O)O)C(C)(C)C3)s2)cc1Nc1cccc(C(F)(F)F)n1 system="Endonuclease III-like protein 1 (Homo sapiens)" reportedendpoint=inhibition resultunit=% val=-1.95
compound=Brc1c(NC2=NCCN2)ccc2nccnc12 system="Endonuclease III-like protein 1 (Homo sapiens)" reportedendpoint=inhibition resultunit=% val=-4.67
compound="CCOC(=O)c1c(C)[nH]c2ccc3c(c12)CN1CCc2cc(OC)ccc2C1O3 (stereo not drawn)" system="Endonuclease III-like protein 1 (Homo sapiens)" reportedendpoint=inhibition resultunit=% val=-1.01
compound=Cc1cc(NC(=O)NCCN2CCC(O)(Cc3ccccc3)CC2)c2ccccc2n1 system="Endonuclease III-like protein 1 (Homo sapiens)" reportedendpoint=inhibition resultunit=% val=-6.04
compound=N=C(N)NCCC[C@@H](NC(=O)C(c1ccccc1)c1ccccc1)C(=O)NCc1ccc(CNC(N)=O)cc1 system="Endonuclease III-like protein 1 (Homo sapiens)" reportedendpoint=inhibition resultunit=% val=11.3
compound="Cc1nccn1CC1CCc2c(c3ccccc3n2C)C1=O (stereo not drawn)" system="Endonuclease III-like protein 1 (Homo sapiens)" reportedendpoint=inhibition resultunit=% val=22
compound=O=C(c1ccc2c(ccn2-c2ccc(F)cc2)c1)N1CC(N2CCN(C(=O)c3nccs3)CC2)C1 system="Endonuclease III-like protein 1 (Homo sapiens)" reportedendpoint=inhibition resultunit=% val=-0.63
compound=CC1(C)[C@H]2C[C@H](C/C=C\CCCC(=O)O)[C@@H](NC(=O)c3csc4ccc(O)cc34)[C@@H]1C2 system="Endonuclease III-like protein 1 (Homo sapiens)" reportedendpoint=inhibition resultunit=% val=-3.21
compound="CC(C)(C)NCC(O)COc1cccc2[nH]c(=O)[nH]c12 (stereo not drawn)" system="Endonuclease III-like protein 1 (Homo sapiens)" reportedendpoint=inhibition resultunit=% val=-6.87
compound="CCOC(=O)C1=C(C)NC(C)=C(C(=O)OC)C1c1cccc([N+](=O)[O-])c1 (stereo not drawn)" system="Endonuclease III-like protein 1 (Homo sapiens)" reportedendpoint=inhibition resultunit=% val=12.9
compound=COC1CCN(c2cccc(-c3cc(NC(C)=O)nc(-n4nc(C)cc4C)n3)n2)CC1 system="Endonuclease III-like protein 1 (Homo sapiens)" reportedendpoint=inhibition resultunit=% val=12.2
compound=Cn1c(C2(NC(=O)c3ccc4c(C5CCCC5)c(-c5ncc(Br)cn5)n(C)c4c3)CCC2)nc2ccc(/C=C/C(=O)O)cc21 system="Endonuclease III-like protein 1 (Homo sapiens)" reportedendpoint=inhibition resultunit=% val=0.685
compound=Cc1cn([C@H](C)CC#N)c(=O)c2cc(Cn3nc(C(F)F)cc3Cl)nn12 system="Endonuclease III-like protein 1 (Homo sapiens)" reportedendpoint=inhibition resultunit=% val=-5.89
compound=CC[C@@H](Nc1c(C#N)c(-c2ccc(-c3cccc(C)c3F)cc2)nc2cnccc12)C(=O)O system="Endonuclease III-like protein 1 (Homo sapiens)" reportedendpoint=inhibition resultunit=% val=2.05
compound=O=C(NCC(=O)N1CC[C@H](N[C@H]2CC[C@@](O)(c3ccc(-c4ncccn4)cn3)CC2)C1)c1cccc(C(F)(F)F)c1 system="Endonuclease III-like protein 1 (Homo sapiens)" reportedendpoint=inhibition resultunit=% val=0.458
compound=CCCCC/C=C\C/C=C\C/C=C\C/C=C\CCCC(=O)OC(CO)CO system="Endonuclease III-like protein 1 (Homo sapiens)" reportedendpoint=inhibition resultunit=% val=9.99
compound=C[C@@H](NC(=O)Cc1ccc(C2CC2)cc1)c1ccc(OCC(F)(F)F)cn1 system="Endonuclease III-like protein 1 (Homo sapiens)" reportedendpoint=inhibition resultunit=% val=11.3
compound=Cn1ncnc1COc1nn2c(-c3cc(F)ccc3F)nnc2cc1C(C)(C)C system="Endonuclease III-like protein 1 (Homo sapiens)" reportedendpoint=inhibition resultunit=% val=-7.69
compound=CCCN[C@H]1CCc2nc(N)sc2C1 system="Endonuclease III-like protein 1 (Homo sapiens)" reportedendpoint=inhibition resultunit=% val=22
compound=Cc1cc(OCCC(C)(C)O)cc(C)c1-c1ccc(F)c2c1CC[C@H]2Oc1ccc2c(c1)OC[C@H]2CC(=O)O system="Endonuclease III-like protein 1 (Homo sapiens)" reportedendpoint=inhibition resultunit=% val=-4.57
compound=Cc1c(C(=O)NC2CCCCC2)sc2nc3ccc(N)cc3n12 system="Endonuclease III-like protein 1 (Homo sapiens)" reportedendpoint=inhibition resultunit=% val=7.79
compound="O=C1NCN(c2ccccc2)C12CCN(CC1COc3ccccc3O1)CC2 (stereo not drawn)" system="Endonuclease III-like protein 1 (Homo sapiens)" reportedendpoint=inhibition resultunit=% val=2.66
compound=CCCC(=O)C1(c2ccccc2)CCN(C(=O)[C@@H](Cc2ccc(OC)cc2)NC(=O)[C@@H](N)Cc2cncn2C)CC1 system="Endonuclease III-like protein 1 (Homo sapiens)" reportedendpoint=inhibition resultunit=% val=-2.73
compound=Cc1c(C(=O)Nc2ccc(N3C[C@@H](C)O[C@@H](C)C3)nc2)cccc1-c1ccc(OC(F)(F)F)cc1 system="Endonuclease III-like protein 1 (Homo sapiens)" reportedendpoint=inhibition resultunit=% val=-3.21
compound=O=C1O[C@]2(CC[C@H](C(=O)Nc3ccn(-c4ccccc4F)n3)CC2)c2cnccc21 system="Endonuclease III-like protein 1 (Homo sapiens)" reportedendpoint=inhibition resultunit=% val=-1.74
compound=CC(C)(C)c1cc(C(C)(C)C)c(NC(=O)c2c[nH]c3ccccc3c2=O)cc1O system="Endonuclease III-like protein 1 (Homo sapiens)" reportedendpoint=inhibition resultunit=% val=14.6
compound=CC#CC(=O)N1CCC[C@H]1c1nc(-c2ccc(C(=O)Nc3ccccn3)cc2)c2c(N)nccn12 system="Endonuclease III-like protein 1 (Homo sapiens)" reportedendpoint=inhibition resultunit=% val=-7.58
compound=CNc1ncc2cc(-c3ccc(-c4ncccc4F)cc3Cl)c(=O)n(C[C@H]3OC[C@H](N)CO3)c2n1 system="Endonuclease III-like protein 1 (Homo sapiens)" reportedendpoint=inhibition resultunit=% val=-2
compound=COc1ccccc1-n1nc(C2CC(C)(C)OC(C)(C)C2)cc1-c1ccc(Cl)cc1 system="Endonuclease III-like protein 1 (Homo sapiens)" reportedendpoint=inhibition resultunit=% val=12.1
compound=COc1cccc([C@H](O)C2CCN(CCc3ccc(F)cc3)CC2)c1OC system="Endonuclease III-like protein 1 (Homo sapiens)" reportedendpoint=inhibition resultunit=% val=3.39
compound=C=C1/C(=C\C=C2/CCC[C@]3(C)[C@@H]([C@H](C)CCCC(C)(C)O)CC[C@@H]23)C[C@@H](O)C[C@@H]1O system="Endonuclease III-like protein 1 (Homo sapiens)" reportedendpoint=inhibition resultunit=% val=-8.52
compound=CCOC(=O)N1CCC(NS(=O)(=O)c2ccc(NC(=O)c3ccccc3C)c3ccccc23)CC1 system="Endonuclease III-like protein 1 (Homo sapiens)" reportedendpoint=inhibition resultunit=% val=-6.86
compound=O=c1c(Br)ccc2n1C[C@@H]1CNC[C@H]2C1 system="Endonuclease III-like protein 1 (Homo sapiens)" reportedendpoint=inhibition resultunit=% val=8.82
compound=CO[C@@H](C)c1c(Nc2ccc([C@@H](N(C)C(=O)C3CCS(=O)(=O)CC3)C(F)(F)F)cc2)cnc2cc(Cl)nn12 system="Endonuclease III-like protein 1 (Homo sapiens)" reportedendpoint=inhibition resultunit=% val=-9.83
compound=CC1=C(C#N)C(c2ccc3c(c2)c(NC(=O)c2ccccc2C)nn3C)C(C#N)=C(C)N1 system="Endonuclease III-like protein 1 (Homo sapiens)" reportedendpoint=inhibition resultunit=% val=-3.26
compound=Cc1oc2ccccc2c1Cc1cc(I)c(OCC(=O)O)c(I)c1 system="Endonuclease III-like protein 1 (Homo sapiens)" reportedendpoint=inhibition resultunit=% val=17.8
compound=FC(F)(F)c1ccc2c(c1)nc(-c1cccnc1)n2C1CC1 system="Endonuclease III-like protein 1 (Homo sapiens)" reportedendpoint=inhibition resultunit=% val=-7.86
